Hey, just so you know, these numbers are from ChEMBL document CHEMBL1649356.

# Tested on: SMMC-7721
# RUN DESCRIPTION: Cytotoxicity against human SMMC7721 cells after 48 hrs by MTT assay
# Format: functional, cell-based
# CONDITION NOTES: SMMC-7721, 48 h
VALUE KIND: IC50 (nM)
Numbers only here, please. The scale is nM.

Record CC(=O)O[C@@H]1CC[C@]2(C)[C@H]3CC[C@@H]4[C@@H]([C@@](C)(O)CCCC(C)(C)OO)CC[C@@]4(C)[C@]3(C)CC[C@H]2C1(C)C , field IC50: 1400

Record CC1(C)C=CC[C@@](C)([C@H]2CC[C@]3(C)[C@@H]2CC[C@@H]2[C@@]4(C)CCC(=O)C(C)(C)[C@@H]4CC[C@]23C)O1 , field IC50: 2100

Record COc1cccc2c1C(=O)c1c(O)c3c(c(O)c1C2=O)C[C@@](O)(C(=O)CO)C[C@@H]3O[C@H]1C[C@H](N)[C@H](O)[C@H](C)O1 , field IC50: 370

Record C=C(C/C=C/C(C)(C)O)[C@H]1CC[C@]2(C)[C@@H]1CC[C@@H]1[C@@]3(C)CCC(=O)C(C)(C)[C@@H]3CC[C@]12C , field IC50: 4200
